tested on: woolly cupgrass (Eriochloa villosa); test: Test C preemergence; type: in vivo; conditions: preemergence, Rate 31 g/ha, scale 0 to 100

>  <compound>
Cc1ccc(N2CCC(n3ccc(C(C)(C)C)n3)C2=O)cc1OCCCl (stereo not drawn) [Compound 109]

>  <system tested>
woolly cupgrass (Eriochloa villosa)

>  <Plant response rating, Cupgrass, Woolly>
10

$$$$
>  <compound>
CCC(CC)c1ccn(C2SCN(c3cccc(C(F)(F)F)c3)C2=O)n1 (stereo not drawn) [Compound 25]

>  <system tested>
woolly cupgrass (Eriochloa villosa)

>  <Plant response rating, Cupgrass, Woolly>
60

$$$$
>  <compound>
CC(C)Oc1cccc(N2CCC(n3ccc(C(C)(C)C)n3)C2=O)c1 (stereo not drawn) [Compound 70]

>  <system tested>
woolly cupgrass (Eriochloa villosa)

>  <Plant response rating, Cupgrass, Woolly>
0

$$$$
>  <compound>
CC(C)(C)c1ccn(C2CCN(c3cccc([S+]([O-])C(F)(F)F)c3)C2=O)n1 (stereo not drawn) [Compound 101]

>  <system tested>
woolly cupgrass (Eriochloa villosa)

>  <Plant response rating, Cupgrass, Woolly>
0

$$$$
>  <compound>
COc1cc(N2CCC(n3ccc(C(C)(C)C)n3)C2=O)ccc1C (stereo not drawn) [Compound 42]

>  <system tested>
woolly cupgrass (Eriochloa villosa)

>  <Plant response rating, Cupgrass, Woolly>
0

$$$$
>  <compound>
COC(=O)c1cccc(N2CCC(n3ccc(C(C)(C)C)n3)C2=O)c1 (stereo not drawn) [Compound 73]

>  <system tested>
woolly cupgrass (Eriochloa villosa)

>  <Plant response rating, Cupgrass, Woolly>
20

$$$$

---

test system: barnyardgrass (Echinochloa crus-galli); assay: Test B postemergence; type: in vivo; details: Rate 125 g/ha, scale 0 (no effect) to 100 (complete control), 13 to 15 days

>  <compound>
CC1(C)CCc2cn(C3CCN(c4cccc(C(F)(F)F)c4)C3=O)nc21 (stereo not drawn)

>  <Plant response rating, Barnyardgrass>
0

$$$$
>  <compound>
CC(C)c1ccn(C2SCN(c3cccc(OC(F)F)c3)C2=O)n1 (stereo not drawn)

>  <Plant response rating, Barnyardgrass>
40

$$$$
>  <compound>
CC(C)(C)c1ccn(C2CCN(c3cccc(OC(=O)C(F)(F)F)c3)C2=O)n1 (stereo not drawn)

>  <Plant response rating, Barnyardgrass>
0

$$$$
>  <compound>
Cc1ccc(N2CCC(n3ccc(C(C)(C)C)n3)C2=O)cc1Br (stereo not drawn)

>  <Plant response rating, Barnyardgrass>
0

$$$$
>  <compound>
O=C1C(n2ccc(C3CCC3)n2)SCN1c1cccc(OC(F)F)c1 (stereo not drawn)

>  <Plant response rating, Barnyardgrass>
30

$$$$
>  <compound>
CC1(c2ccn(C3OCN(c4cccc(C(F)(F)F)c4)C3=O)n2)CC1 (stereo not drawn)

>  <Plant response rating, Barnyardgrass>
0

$$$$
>  <compound>
CC(C)(C)c1ccn(C2SCN(c3cccc(OC(F)F)c3)C2=O)n1 (stereo not drawn)

>  <Plant response rating, Barnyardgrass>
90

$$$$
>  <compound>
Cc1cc(N2CCC(n3ccc(C(C)(C)C)n3)C2=O)ccc1Cl (stereo not drawn)

>  <Plant response rating, Barnyardgrass>
0

$$$$
>  <compound>
CCC(C)c1ccn(C2CCN(c3cccc(OC(C)C)c3)C2=O)n1 (stereo not drawn)

>  <Plant response rating, Barnyardgrass>
0

$$$$

---

test system: giant foxtail (Setaria faberii); assay: Test C postemergence; assay type: in vivo; conditions: Rate 500 g/ha, scale 0 to 100 (0 no effect, 100 complete control)
// reported Plant response rating, Foxtail, Giant per item

>  <compound>
CC(C)(C)c1ccn(C2SCN(c3cccc(OC(F)(F)F)c3)C2=O)n1 (centres unmarked)

>  <Plant response rating, Foxtail, Giant>
80

$$$$
>  <compound>
CCC(C)c1ccn(C2SCN(c3cccc(OC(F)(F)F)c3)C2=O)n1 (centres unmarked)

>  <Plant response rating, Foxtail, Giant>
0

$$$$
>  <compound>
COc1cc(N2CCC(n3ccc(C(C)C)n3)C2=O)ccc1Cl (centres unmarked)

>  <Plant response rating, Foxtail, Giant>
70

$$$$
>  <compound>
CCCC(C)c1ccn(C2OCN(c3cccc(OC(F)(F)F)c3)C2=O)n1 (centres unmarked)

>  <Plant response rating, Foxtail, Giant>
40

$$$$
>  <compound>
COc1cc(N2CCC(n3ccc(C(C)C)n3)C2=O)ccc1C (centres unmarked)

>  <Plant response rating, Foxtail, Giant>
70

$$$$

---

tested on: giant foxtail (Setaria faberii); experiment: Test C preemergence; type: in vivo; details: preemergence, Rate 500 g/ha, visual evaluation after 12 to 14 days
Below: a set of entries, each annotated with reported Plant response rating (0 to 100), Foxtail, Giant.
measurement label: Plant response rating (0 to 100), Foxtail, Giant

>  <compound>
CCC(C)c1ccn(C2CCN(c3ccc(Br)c(OC)c3)C2=O)n1 (centres unmarked)

>  <readout number>
100

$$$$
>  <compound>
COc1cc(N2CCC(n3ccc(C(C)(C)C)n3)C2=O)ccc1Cl (centres unmarked)

>  <readout number>
100

$$$$
>  <compound>
CC1(c2ccn(C3OCN(c4cccc(C(F)(F)F)c4)C3=O)n2)CC1 (centres unmarked)

>  <readout number>
100

$$$$
>  <compound>
CCC(C)Oc1cccc(N2CCC(n3ccc(C(C)(C)C)n3)C2=O)c1 (centres unmarked)

>  <readout number>
100

$$$$
>  <compound>
CC(C)(C)c1ccn(C2CCN(c3cccc(SC(F)(F)F)c3)C2=O)n1 (centres unmarked)

>  <readout number>
60

$$$$

---

System: barnyardgrass (Echinochloa crus-galli)
Experiment: Test B postemergence
Assay type: in vivo
Settings: Rate 125 g/ha, scale 0 to 100, 0 no effect, 100 complete control
Experimental: […] At the same time, plants selected from these crop and weed species and also blackgrass (Alopecurus myosuroides), wheat (Triticum aestivum) and wild oat (Avena fatua) were treated with postemergence applications of test chemicals formulated in the same manner. […] Treated plants and controls were maintained in a greenhouse for 13 to 15 days, after which time all species were compared to controls and visually evaluated. […]
This section presents compounds with their documented Plant response rating, Barnyardgrass values.
measurement label: Plant response rating, Barnyardgrass

>  <compound>
CC(C)(C)c1ccn(C2OCN(c3cccc(OC(F)F)c3)C2=O)n1 (centres unmarked)

>  <readout number>
80

$$$$
>  <compound>
CCC(C)c1ccn(C2OCN(c3cccc(OC(F)F)c3)C2=O)n1 (centres unmarked)

>  <readout number>
90

$$$$
>  <compound>
COc1cc(N2CCC(n3ccc(C(C)(C)C)n3)C2=O)ccc1Cl (centres unmarked)

>  <readout number>
40

$$$$
>  <compound>
CCOc1cccc(N2CCC(n3ccc(C(C)C)n3)C2=O)c1 (centres unmarked)

>  <readout number>
0

$$$$
>  <compound>
CCC(C)c1ccn(C2CCN(c3ccc(F)c(C(F)(F)F)c3)C2=O)n1 (centres unmarked)

>  <readout number>
0

$$$$

---

In this section, each of the molecules is paired with its reported Plant response rating, Sunflower.
test system: Sunflower; experiment: Test C preemergence; type: in vivo; settings: Rate 500 g/ha, scale 0 to 100
measurement label: Plant response rating, Sunflower

>  <molecule>
CCC(C)c1ccn(C2SCN(c3cccc(OC(F)(F)F)c3)C2=O)n1 (stereo not shown)

>  <measurement label>
Plant response rating, Sunflower

>  <readout number>
40

$$$$
>  <molecule>
CC(C)(C)c1ccn(C2CCN(c3cccc(C(F)(F)F)c3)C2=S)n1 (stereo not shown)

>  <measurement label>
Plant response rating, Sunflower

>  <readout number>
0

$$$$
>  <molecule>
CC(C)(C)c1ccn(C2SCN(c3cccc(OC(F)(F)F)c3)C2=O)n1 (stereo not shown)

>  <measurement label>
Plant response rating, Sunflower

>  <readout number>
100

$$$$
>  <molecule>
CC(C)c1ccn(C2SCN(c3cccc(OC(F)(F)F)c3)C2=O)n1 (stereo not shown)

>  <measurement label>
Plant response rating, Sunflower

>  <readout number>
40

$$$$

---

tested on: woolly cupgrass (Eriochloa villosa); assay: Test C preemergence; type: in vivo; conditions: Rate 62 g/ha; scale 0 to 100, 0 no effect, 100 complete control

>  <molecule>
CC(C)(C)c1ccn(C2CCN(c3ccc(Cl)c(Br)c3)C2=O)n1 (stereo not shown) [Compound 56]

>  <system tested>
woolly cupgrass (Eriochloa villosa)

>  <Plant response rating, Cupgrass, Woolly>
0

$$$$
>  <molecule>
CC(C)(C)c1ccn(C2CCN(c3cccc(Cl)c3)C2=O)n1 (stereo not shown) [Compound 43]

>  <system tested>
woolly cupgrass (Eriochloa villosa)

>  <Plant response rating, Cupgrass, Woolly>
30

$$$$
>  <molecule>
O=C1C(n2ccc(C3CCC3)n2)SCN1c1cccc(C(F)(F)F)c1 (stereo not shown) [Compound 37]

>  <system tested>
woolly cupgrass (Eriochloa villosa)

>  <Plant response rating, Cupgrass, Woolly>
0

$$$$
>  <molecule>
CCC(C)c1ccn(C2OCN(c3cccc(OC(F)(F)F)c3)C2=O)n1 (stereo not shown) [Compound 67]

>  <system tested>
woolly cupgrass (Eriochloa villosa)

>  <Plant response rating, Cupgrass, Woolly>
90

$$$$

The reported numbers originate from patent US7138361B2.
